- measured target: UniProt:P22309
- Sequence (P22309 26-533): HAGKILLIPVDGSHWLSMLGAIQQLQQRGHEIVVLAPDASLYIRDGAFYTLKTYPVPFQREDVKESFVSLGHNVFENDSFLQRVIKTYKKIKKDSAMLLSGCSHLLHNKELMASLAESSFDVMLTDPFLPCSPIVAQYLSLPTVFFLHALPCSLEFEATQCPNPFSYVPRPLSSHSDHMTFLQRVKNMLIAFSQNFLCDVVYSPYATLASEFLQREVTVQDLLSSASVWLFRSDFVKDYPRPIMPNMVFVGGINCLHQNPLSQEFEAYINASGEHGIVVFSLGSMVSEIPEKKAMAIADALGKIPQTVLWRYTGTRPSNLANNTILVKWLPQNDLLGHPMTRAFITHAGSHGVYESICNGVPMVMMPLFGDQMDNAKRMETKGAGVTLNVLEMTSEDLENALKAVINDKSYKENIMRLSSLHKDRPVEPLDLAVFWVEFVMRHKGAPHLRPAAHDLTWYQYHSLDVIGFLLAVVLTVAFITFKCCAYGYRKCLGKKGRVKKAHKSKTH
pIC50: −log10 of the molar value.

{"columns": ["molecule", "pIC50"],
 "data": [
  ["CNc1nc(Nc2ccc(-n3cnc(C)n3)c(OC)c2)nc2c1CC[C@H]2c1ccc(F)cc1 [BMS-932481]", 5.87]
]}

====

- measured target: CYP3A4 (Homo sapiens, UniProt P08684)
- Sequence (P08684 whole entry): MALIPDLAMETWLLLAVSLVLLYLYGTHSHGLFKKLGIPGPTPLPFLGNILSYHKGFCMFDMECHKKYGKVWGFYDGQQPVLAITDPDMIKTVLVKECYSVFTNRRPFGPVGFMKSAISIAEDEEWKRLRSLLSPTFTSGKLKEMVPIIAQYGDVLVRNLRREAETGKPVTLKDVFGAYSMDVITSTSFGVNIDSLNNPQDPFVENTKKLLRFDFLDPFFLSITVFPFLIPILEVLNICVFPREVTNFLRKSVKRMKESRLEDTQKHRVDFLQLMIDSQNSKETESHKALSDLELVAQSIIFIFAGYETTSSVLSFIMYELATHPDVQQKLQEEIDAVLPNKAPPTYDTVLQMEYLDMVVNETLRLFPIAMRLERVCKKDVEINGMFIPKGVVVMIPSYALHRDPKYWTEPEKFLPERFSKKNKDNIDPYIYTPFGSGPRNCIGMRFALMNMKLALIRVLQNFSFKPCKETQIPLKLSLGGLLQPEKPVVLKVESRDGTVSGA
- run description: Preclinical CYP3A4 time-dependent inhibition, induction and metabolism
- Format: in vitro ADME
- condition summary: human
property: KI (inactivation)

{"columns": ["compound structure string", "reported value"],
 "data": [
  ["CNc1nc(Nc2ccc(-n3cnc(C)n3)c(OC)c2)nc2c1CC[C@H]2c1ccc(F)cc1", "82.5 µM"]
]}

====

- run description: SAD study plasma pharmacokinetics
- Assay type: in vivo, human
- condition summary: both, human, plasma, oral, mean terminal half-life, SAD, healthy young participants

{"columns": ["compound structure string", "half-life"],
 "data": [
  ["CNc1nc(Nc2ccc(-n3cnc(C)n3)c(OC)c2)nc2c1CC[C@H]2c1ccc(F)cc1", "16 to 32 h"]
]}

====

- run description: MAD study plasma pharmacokinetics
- Type: in vivo, human
- condition summary: human, plasma, oral, 50 mg, Cmax GM (CV%), MAD panel 1, 50 mg once daily, day 1

{"columns": ["molecule", "Cmax [ng/mL]"],
 "data": [
  ["CNc1nc(Nc2ccc(-n3cnc(C)n3)c(OC)c2)nc2c1CC[C@H]2c1ccc(F)cc1 [BMS-932481]", 134]
]}

====

- run description: MAD study plasma pharmacokinetics
- Format: in vivo, human
- condition summary: human, plasma, oral, 50 mg, C24 GM (CV%), MAD panel 1, 50 mg once daily, day 14
property: concentration at 24 h (ng/mL)

{"columns": ["compound structure string", "units label", "reported value"],
 "data": [
  ["CNc1nc(Nc2ccc(-n3cnc(C)n3)c(OC)c2)nc2c1CC[C@H]2c1ccc(F)cc1", "ng/mL", 204]
]}

====

- run description: SAD study plasma pharmacokinetics
- Type: in vivo, human
- condition summary: human, plasma, oral, 900 mg, Cmax GM (CV%), SAD panel 9, 900 mg
property: Cmax

{"columns": ["compound structure string", "reported value"],
 "data": [
  ["CNc1nc(Nc2ccc(-n3cnc(C)n3)c(OC)c2)nc2c1CC[C@H]2c1ccc(F)cc1", "876 ng/mL"]
]}

// provenance: paper PMC4931877
